# reported GI50; entries follow
System: XF498
Experiment: NCI tumour cell line growth inhibition, 48 h
The source made the active and inactive calls. Cut-off read from the data, not from the text of the source: active = GI50 up to about 1.1 µM and inactive = higher.
Measured property: GI50

> print(dat)
                                   compound  target.desc  measured.property  reported.measurement
1  CC(C)(C)Sc1nnc(SC(C)(C)C)c2c(SC(C)(C)C)nnc(O)c12        XF498               GI50    15.3 µM (inactive)
2  OCC(O)C(OC1OC(CO)C(O)C(O)C1O)c1nn(-c2ccc(Cl)cc2)c2nc3cc(Cl)ccc3nc12 (configuration not stated)        XF498               GI50   > 100 µM (inactive)
3  CCOC(=O)[C@]12C3C=CC(C3)C1C(=O)C1OC12 (some centres not stated)        XF498               GI50   > 100 µM (inactive)
4  CCOC(=O)C1=C(C)N(Cc2ccccc2)C(=O)C1CC#N (configuration not stated)        XF498               GI50    < 0.01 µM (active)
5  N#CC(C(=O)CCC(=O)Nc1cccc(C(F)(F)F)c1)c1ccc(Cl)cc1 (configuration not stated)        XF498               GI50   > 100 µM (inactive)
6  Cn1c2c(c3ccccc31)CCN(CCCCN1CCN(c3ccccc3)CC1)C2=O        XF498               GI50    14.1 µM (inactive)
7  CC[P+](C)(Cc1ccccc1)c1ccccc1 (configuration not stated)        XF498               GI50    24.7 µM (inactive)
